system: Tyrosinase; assay: High pressure experiments, tyrosinase; format: biochemical, Mushroom; conditions: 2 atm
Output class 1 for inhibition relative to 1 atmosphere after pressurization not less than -90%; output class 0 otherwise.

1) [Ne] [Ne, neon] | class 1
2) [Xe] [Xe, xenon] | class 1
3) [Kr] [Kr, krypton] | class 0

====

test system: Tyrosinase; experiment: Tyrosinase-L-tyrosine reaction, solution saturated with gas; type: biochemical, Mushroom; conditions: 25° C., optimal reaction conditions, simple saturation of solution with gas; minus = inhibition
# effect listing for each entry below
assay.endpoint: effect (%)

1. [Ne] | -46.7
2. [Xe] | -73
3. [Ar] | -60
4. [Kr] | -73

====

target: citrate synthetase (Homo sapiens, UniProt O75390); assay: Citrate synthetase complex reaction under gas; format: biochemical; settings: 35° C.
Sequence (O75390 28-466): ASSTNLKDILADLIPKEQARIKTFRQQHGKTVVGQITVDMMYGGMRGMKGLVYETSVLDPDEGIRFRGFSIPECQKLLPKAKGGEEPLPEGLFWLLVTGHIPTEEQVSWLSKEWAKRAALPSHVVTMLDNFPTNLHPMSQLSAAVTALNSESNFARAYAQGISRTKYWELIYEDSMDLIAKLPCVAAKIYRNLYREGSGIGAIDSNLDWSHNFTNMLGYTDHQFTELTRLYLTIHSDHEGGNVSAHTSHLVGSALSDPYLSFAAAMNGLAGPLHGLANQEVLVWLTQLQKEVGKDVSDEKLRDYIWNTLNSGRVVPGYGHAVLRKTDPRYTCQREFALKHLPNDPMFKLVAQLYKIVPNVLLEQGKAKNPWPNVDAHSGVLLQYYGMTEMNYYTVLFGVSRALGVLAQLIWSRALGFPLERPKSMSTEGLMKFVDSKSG
Entries and their measured effect on citrate synthetase complex reaction follow.
assay.endpoint: effect on citrate synthetase complex reaction

1) N#N [N2, nitrogen, reference compound] | -17
2) [Ar] [Ar, argon] | -15
3) [Xe] [Xe, xenon] | +32
4) [Kr] [Kr, krypton] | +32
5) [Ne] [Ne, neon] | -14

====

Reported effect on phenylalanine ammonia lyase values are given for each entry in this list.
system: phenylalanine ammonia lyase; test: Phenylalanine ammonia lyase activity under gas; format: biochemical; conditions: suboptimal enzyme concen.; third value column, head not printed
assay.endpoint: effect on phenylalanine ammonia lyase

1. N#N [N2, nitrogen, reference compound] | +12
2. [Xe] [Xe, xenon] | +11
3. [Ne] [Ne, neon] | +6
4. [Ar] [Ar, argon] | +6.5
5. [Kr] [Kr, krypton] | +14

====

system: Acetyl S-CoA synthetase; assay: Acetyl S-CoA synthetase activity under gas (coupled sequence or isolated reaction); format: biochemical; conditions: coupled complex reaction sequence including hydrolytic enzymes; depending upon temperature
// values below are reported maximum observed inhibition
assay.endpoint: maximum observed inhibition (%)

1. [Ne] | -21.9
2. [Kr] | -34.6
3. [Xe] | -25.0
4. N#N [N2, nitrogen, reference compound] | -39.5

====

system: phenylalanine ammonia lyase; assay: Phenylalanine ammonia lyase activity under gas; format: biochemical; conditions: optimized enzyme concentration; second value column, head not printed
assay.endpoint: effect on phenylalanine ammonia lyase

1) [Ne] | +6
2) [Kr] | +4
3) [Xe] | +3
4) N#N [N2, nitrogen, reference compound] | 0
5) [Ar] | +1

====

system: phenylalanine ammonia lyase; assay: Phenylalanine ammonia lyase activity under gas; format: biochemical; settings: optimized enzyme concentration; third value column, head not printed
assay.endpoint: effect on phenylalanine ammonia lyase

1. [Ne] [Ne, neon] | -6
2. [Kr] [Kr, krypton] | +4
3. N#N [N2, nitrogen, reference compound] | +6
4. [Ar] [Ar, argon] | +3
5. [Xe] [Xe, xenon] | +5

====

molecular target: Phosphoglucose isomerase (Homo sapiens, UniProt P06744); assay: Phosphoglucose isomerase activity under gas; assay type: biochemical; details: phosphoglucose isomerase
Listed here: items and their measured effect.
assay.endpoint: effect

1. [Kr] | +206.4%
2. [Xe] | +186%
3. [Ne] | +107%
4. [Ar] | +232.5%

====

system: oxidoreductase enzymes; experiment: Oxidoreductases, effects for the class; format: biochemical; conditions: Class I oxidoreductases; minus = inhibition
Listing of recorded Maxima for class: effect by entry.
assay.endpoint: Maxima for class: effect (%)

1. [Ar] [Ar, argon] | -91
2. [Ne] [Ne, neon] | -85
3. [Kr] [Kr, krypton] | -91
4. [Xe] [Xe, xenon] | -95
